experiment: Ex vivo biodistribution in normal mice; parameters: species or system ddY mice; conditions: i.v., 2 min after injection, mean (SD), 5 animals
Recorded Biodistribution of radioactivity, Lung by entry

[
  {
    "molecule": "CN(C)c1ccc(/C=C/c2ccc(C3=N[O][99Tc-]4(=[O])([NH]C(c5ccc(N(C)C)cc5)=N[O]4)[NH2+]3)cc2)cc1 (single isomer, unassigned) [[^99mTc]SB1A]",
    "Biodistribution of radioactivity, Lung": "15.47 (4.14) % injected dose per gram"
  },
  {
    "molecule": "CN(C)c1ccc(C2=N[O][99Tc-]3(=[O])([NH]2)[NH2+]C(c2ccc4nc(-c5ccc(N(C)C)cc5)sc4c2)=N[O]3)cc1 [[^99mTc]BT1B]",
    "Biodistribution of radioactivity, Lung": "10.87 (2.06) % injected dose per gram"
  },
  {
    "molecule": "CN(C)c1ccc(/C=C/c2ccc(C3=N[O][99Tc-]4(=[O])([NH]3)[NH2+]C(c3ccc(/C=C/c5ccc(N(C)C)cc5)cc3)=N[O]4)cc2)cc1 (single isomer, unassigned) [[^99mTc]SB2A]",
    "Biodistribution of radioactivity, Lung": "14.35 (1.86) % injected dose per gram"
  },
  {
    "molecule": "CN(C)c1ccc(-c2nc3ccc(C4=N[O][99Tc-]5(=[O])([NH]4)[NH2+]C(c4ccc6nc(-c7ccc(N(C)C)cc7)sc6c4)=N[O]5)cc3s2)cc1 [[^99mTc]BT2B]",
    "Biodistribution of radioactivity, Lung": "22.06 (3.09) % injected dose per gram"
  }
]
